Target: full-length kinase/Nluc fusion proteins (Homo sapiens)
Test: Apparent affinity (EC50) of energy transfer probes by titration onto live HEK293 cells expressing kinase/Nluc fusions (Table S1)
Conditions: AAK1, Nluc N; read-out: Probe EC50
OBSERVED_PROPERTY: EC50

Identify measured EC50 corresponding to CNC(=O)c1ccccc1Nc1nc(Nc2ccc(N3CCN(C(=O)CCOCCOCCOCCOCCNC(=O)CCc4ccc5n4[B-](F)(F)[N+]4=C(c6ccc[nH]6)C=CC4=C5)CC3)cc2)ncc1Cl [Energy Transfer Probe 5]
> 1 µM

----------
Molecular target: full-length kinase/Nluc fusion proteins (Homo sapiens)
Experiment: Apparent affinity (EC50) of energy transfer probes by titration onto live HEK293 cells expressing kinase/Nluc fusions (Table S1)
Settings: PRKCE, Nluc C; read-out: Probe EC50
pEC50: −log10 of the molar value.
OBSERVED_PROPERTY: pEC50

Identify measured pEC50 corresponding to CNC(=O)c1ccccc1Nc1nc(Nc2ccc(N3CCN(C(=O)CCOCCOCCOCCOCCNC(=O)CCc4ccc5n4[B-](F)(F)[N+]4=C(c6ccc[nH]6)C=CC4=C5)CC3)cc2)ncc1Cl [Energy Transfer Probe 5]
< 6.00

----------
Molecular target: full-length kinase/Nluc fusion proteins (Homo sapiens, UniProt Q00532)
Sequence (Q00532 whole entry, the tested form may be a part): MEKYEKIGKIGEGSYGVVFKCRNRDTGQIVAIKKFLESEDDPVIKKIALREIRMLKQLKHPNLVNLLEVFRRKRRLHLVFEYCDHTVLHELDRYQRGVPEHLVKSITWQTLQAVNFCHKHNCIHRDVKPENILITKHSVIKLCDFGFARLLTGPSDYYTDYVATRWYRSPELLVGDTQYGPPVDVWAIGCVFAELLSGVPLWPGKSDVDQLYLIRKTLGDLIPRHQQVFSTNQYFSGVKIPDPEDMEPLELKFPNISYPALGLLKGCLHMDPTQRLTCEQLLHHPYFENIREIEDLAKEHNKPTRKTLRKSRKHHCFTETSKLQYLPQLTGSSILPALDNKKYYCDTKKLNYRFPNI
Test: Apparent affinity (EC50) of energy transfer probes by titration onto live HEK293 cells expressing kinase/Nluc fusions (Table S1)
Conditions: CDKL1, Nluc N; read-out: Probe EC50
OBSERVED_PROPERTY: pEC50
Answers are plain numbers, as −log10 of the molar value.

Provide pEC50, system full-length kinase/Nluc fusion proteins (Homo sapiens, UniProt Q00532), entry N#CCc1ccc(Nc2nc(NCCCCNC(=O)CCc3ccc4n3[B-](F)(F)[N+]3=C(c5ccc[nH]5)C=CC3=C4)cc(Nc3cc(C4CC4)[nH]n3)n2)cc1 [Energy Transfer Probe 1]
6.70

----------
Target: full-length kinase/Nluc fusion proteins (Homo sapiens, UniProt Q9UQB9)
Sequence (Q9UQB9 whole entry, the tested form may be a part): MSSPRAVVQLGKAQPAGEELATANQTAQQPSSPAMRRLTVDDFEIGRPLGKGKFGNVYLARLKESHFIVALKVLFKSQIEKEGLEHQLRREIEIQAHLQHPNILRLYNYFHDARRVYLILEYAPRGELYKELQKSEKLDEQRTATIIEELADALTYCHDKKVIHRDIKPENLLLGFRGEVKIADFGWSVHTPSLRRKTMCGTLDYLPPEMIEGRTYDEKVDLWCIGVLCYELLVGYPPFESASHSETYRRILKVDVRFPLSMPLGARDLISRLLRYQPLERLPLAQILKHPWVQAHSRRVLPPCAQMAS
Test: Apparent affinity (EC50) of energy transfer probes by titration onto live HEK293 cells expressing kinase/Nluc fusions (Table S1)
Details: AURKC, Nluc C; read-out: Probe EC50
OBSERVED_PROPERTY: pEC50
Give bare numbers, as −log10 of the molar value.

Identify measured pEC50 corresponding to CNC(=O)c1ccccc1Nc1nc(Nc2ccc(N3CCN(C(=O)CCOCCOCCOCCOCCNC(=O)CCc4ccc5n4[B-](F)(F)[N+]4=C(c6ccc[nH]6)C=CC4=C5)CC3)cc2)ncc1Cl [Energy Transfer Probe 5]
7.70

----------
Molecular target: full-length kinase/Nluc fusion proteins (Homo sapiens, UniProt P17612)
Test: Apparent affinity (EC50) of energy transfer probes by titration onto live HEK293 cells expressing kinase/Nluc fusions (Table S1)
Format: binding
Conditions: PRKACA, Nluc C; read-out: Probe EC50
pEC50: −log10 of the molar value.
OBSERVED_PROPERTY: pEC50

Identify measured pEC50 corresponding to CNC(=O)c1ccccc1Nc1nc(Nc2ccc(N3CCN(C(=O)CCOCCOCCOCCOCCNC(=O)CCc4ccc5n4[B-](F)(F)[N+]4=C(c6ccc[nH]6)C=CC4=C5)CC3)cc2)ncc1Cl [Energy Transfer Probe 5]
< 6.00

----------
Target: full-length kinase/Nluc fusion proteins (Homo sapiens, UniProt Q14164)
Sequence (Q14164 whole entry, the tested form may be a part): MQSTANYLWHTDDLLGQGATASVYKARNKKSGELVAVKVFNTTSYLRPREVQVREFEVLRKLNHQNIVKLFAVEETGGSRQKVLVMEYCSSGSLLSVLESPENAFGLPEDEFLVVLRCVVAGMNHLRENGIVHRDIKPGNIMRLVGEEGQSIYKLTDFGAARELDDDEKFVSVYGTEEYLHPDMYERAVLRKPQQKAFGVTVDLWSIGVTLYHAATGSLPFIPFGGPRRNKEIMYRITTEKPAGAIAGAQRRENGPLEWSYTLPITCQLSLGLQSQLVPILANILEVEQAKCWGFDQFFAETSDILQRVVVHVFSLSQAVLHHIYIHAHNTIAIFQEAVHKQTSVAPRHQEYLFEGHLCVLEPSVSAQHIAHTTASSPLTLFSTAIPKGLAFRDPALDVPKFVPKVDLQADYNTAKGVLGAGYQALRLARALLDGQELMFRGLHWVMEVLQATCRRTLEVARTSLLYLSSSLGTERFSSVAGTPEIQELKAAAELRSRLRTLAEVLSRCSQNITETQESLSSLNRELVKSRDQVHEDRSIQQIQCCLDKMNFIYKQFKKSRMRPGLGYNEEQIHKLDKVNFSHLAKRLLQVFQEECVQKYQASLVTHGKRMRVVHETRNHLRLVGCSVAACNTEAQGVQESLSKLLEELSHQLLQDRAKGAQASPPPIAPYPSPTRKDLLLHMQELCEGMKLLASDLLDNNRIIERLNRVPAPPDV
Test: Apparent affinity (EC50) of energy transfer probes by titration onto live HEK293 cells expressing kinase/Nluc fusions (Table S1)
Conditions: IKBKE, Nluc N; read-out: Probe EC50
pEC50: −log10 of the molar value.
OBSERVED_PROPERTY: pEC50

Identify measured pEC50 corresponding to CNC(=O)c1ccccc1Nc1nc(Nc2ccc(N3CCN(C(=O)CCOCCOCCOCCOCCNC(=O)CCc4ccc5n4[B-](F)(F)[N+]4=C(c6ccc[nH]6)C=CC4=C5)CC3)cc2)ncc1Cl [Energy Transfer Probe 5]
< 6.00

----------
Target: full-length kinase/Nluc fusion proteins (Homo sapiens)
Experiment: Apparent affinity (EC50) of energy transfer probes by titration onto live HEK293 cells expressing kinase/Nluc fusions (Table S1)
Details: EPHA5, Nluc C; read-out: Probe EC50
OBSERVED_PROPERTY: pEC50
Numbers only, as −log10 of the molar value.

Identify measured pEC50 corresponding to Cc1nc(Nc2ncc(C(=O)Nc3c(C)cccc3Cl)s2)cc(N2CCN(CCOCCNC(=O)CCc3ccc4n3[B-](F)(F)[N+]3=C(c5ccc[nH]5)C=CC3=C4)CC2)n1 [Energy Transfer Probe 6]
7.52

----------
Target: full-length kinase/Nluc fusion proteins (Homo sapiens, UniProt O43353)
Sequence (O43353 whole entry, the tested form may be a part): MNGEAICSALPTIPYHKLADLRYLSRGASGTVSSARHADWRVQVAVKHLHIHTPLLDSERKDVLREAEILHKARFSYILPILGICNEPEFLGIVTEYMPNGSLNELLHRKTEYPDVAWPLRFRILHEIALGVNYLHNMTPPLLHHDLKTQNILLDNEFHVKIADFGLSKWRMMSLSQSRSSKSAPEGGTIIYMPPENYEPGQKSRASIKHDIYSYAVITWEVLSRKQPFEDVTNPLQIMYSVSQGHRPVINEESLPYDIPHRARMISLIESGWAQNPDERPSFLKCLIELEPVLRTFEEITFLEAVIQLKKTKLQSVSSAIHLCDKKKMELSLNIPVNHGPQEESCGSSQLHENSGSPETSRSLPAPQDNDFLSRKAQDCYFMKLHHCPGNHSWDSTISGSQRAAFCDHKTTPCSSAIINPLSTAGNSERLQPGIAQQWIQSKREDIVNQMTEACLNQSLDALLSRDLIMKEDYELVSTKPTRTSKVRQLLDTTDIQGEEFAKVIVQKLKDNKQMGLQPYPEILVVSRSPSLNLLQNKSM
Assay: Apparent affinity (EC50) of energy transfer probes by titration onto live HEK293 cells expressing kinase/Nluc fusions (Table S1)
Conditions: RIPK2 (NP_003812), Nluc orientation N; read-out: Probe EC50
OBSERVED_PROPERTY: pEC50
Numbers only, as −log10 of the molar value.

Identify measured pEC50 corresponding to Cc1nc(Nc2ncc(C(=O)Nc3c(C)cccc3Cl)s2)cc(N2CCN(CCOCCNC(=O)CCc3ccc4n3[B-](F)(F)[N+]3=C(c5ccc[nH]5)C=CC3=C4)CC2)n1 [Energy Transfer Probe 6]
6.70

----------
Biological target: full-length kinase/Nluc fusion proteins (Homo sapiens, UniProt O96013)
Sequence (O96013 whole entry, the tested form may be a part): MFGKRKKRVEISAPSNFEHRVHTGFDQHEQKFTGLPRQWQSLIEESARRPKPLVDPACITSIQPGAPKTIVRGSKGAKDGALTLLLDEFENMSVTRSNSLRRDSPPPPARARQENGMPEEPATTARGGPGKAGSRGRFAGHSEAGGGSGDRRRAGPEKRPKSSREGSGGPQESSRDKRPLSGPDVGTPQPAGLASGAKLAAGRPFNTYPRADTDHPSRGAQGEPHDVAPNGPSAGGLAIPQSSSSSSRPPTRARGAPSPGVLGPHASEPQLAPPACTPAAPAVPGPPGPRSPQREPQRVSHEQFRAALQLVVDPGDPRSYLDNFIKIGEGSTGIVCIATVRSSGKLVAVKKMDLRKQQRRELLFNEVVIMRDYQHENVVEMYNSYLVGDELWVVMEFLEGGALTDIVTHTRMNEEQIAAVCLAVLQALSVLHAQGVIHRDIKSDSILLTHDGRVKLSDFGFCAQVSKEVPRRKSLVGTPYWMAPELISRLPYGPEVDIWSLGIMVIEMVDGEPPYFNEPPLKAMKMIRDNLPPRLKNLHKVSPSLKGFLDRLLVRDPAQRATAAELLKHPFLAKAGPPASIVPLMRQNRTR
Test: Apparent affinity (EC50) of energy transfer probes by titration onto live HEK293 cells expressing kinase/Nluc fusions (Table S1)
Details: PAK4, Nluc C; read-out: Probe EC50
pEC50: −log10 of the molar value.
OBSERVED_PROPERTY: pEC50

Identify measured pEC50 corresponding to CNC(=O)c1ccccc1Nc1nc(Nc2ccc(N3CCN(C(=O)CCOCCOCCOCCOCCNC(=O)CCc4ccc5n4[B-](F)(F)[N+]4=C(c6ccc[nH]6)C=CC4=C5)CC3)cc2)ncc1Cl [Energy Transfer Probe 5]
< 6.00

----------
Molecular target: full-length kinase/Nluc fusion proteins (Homo sapiens, UniProt Q92630)
Sequence (Q92630 1-601): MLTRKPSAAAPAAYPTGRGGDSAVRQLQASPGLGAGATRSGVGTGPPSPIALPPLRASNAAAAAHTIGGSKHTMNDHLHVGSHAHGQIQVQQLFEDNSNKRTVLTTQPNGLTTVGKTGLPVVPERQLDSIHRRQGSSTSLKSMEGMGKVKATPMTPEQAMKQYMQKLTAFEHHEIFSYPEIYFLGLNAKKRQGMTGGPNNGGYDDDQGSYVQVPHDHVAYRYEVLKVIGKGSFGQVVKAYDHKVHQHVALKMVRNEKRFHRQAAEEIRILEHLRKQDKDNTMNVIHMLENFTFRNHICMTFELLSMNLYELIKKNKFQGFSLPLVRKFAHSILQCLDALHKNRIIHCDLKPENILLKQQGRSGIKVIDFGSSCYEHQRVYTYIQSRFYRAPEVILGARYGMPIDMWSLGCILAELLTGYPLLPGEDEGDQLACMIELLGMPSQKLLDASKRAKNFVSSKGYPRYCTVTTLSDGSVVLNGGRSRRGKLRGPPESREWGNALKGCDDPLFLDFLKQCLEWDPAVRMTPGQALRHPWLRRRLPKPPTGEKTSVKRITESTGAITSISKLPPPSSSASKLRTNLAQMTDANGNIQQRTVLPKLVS
Test: Apparent affinity (EC50) of energy transfer probes by titration onto live HEK293 cells expressing kinase/Nluc fusions (Table S1)
Conditions: DYRK2, Nluc C; read-out: Probe EC50
pEC50: −log10 of the molar value.
OBSERVED_PROPERTY: pEC50

Identify measured pEC50 corresponding to CNC(=O)c1ccccc1Nc1nc(Nc2ccc(N3CCN(C(=O)CCOCCOCCOCCOCCNC(=O)CCc4ccc5n4[B-](F)(F)[N+]4=C(c6ccc[nH]6)C=CC4=C5)CC3)cc2)ncc1Cl [Energy Transfer Probe 5]
< 6.00

----------
Biological target: full-length kinase/Nluc fusion proteins (Homo sapiens)
Assay: Apparent affinity (EC50) of energy transfer probes by titration onto live HEK293 cells expressing kinase/Nluc fusions (Table S1)
Type: binding
Conditions: STK16 (NP_001317142), Nluc orientation N; read-out: Probe EC50
OBSERVED_PROPERTY: pEC50
Answers are plain numbers, as −log10 of the molar value.

Identify measured pEC50 corresponding to CNC(=O)c1ccccc1Nc1nc(Nc2ccc(N3CCN(C(=O)CCOCCOCCOCCOCCNC(=O)CCc4ccc5n4[B-](F)(F)[N+]4=C(c6ccc[nH]6)C=CC4=C5)CC3)cc2)ncc1Cl [Energy Transfer Probe 5]
6.52

----------
Molecular target: full-length kinase/Nluc fusion proteins (Homo sapiens, UniProt O75385)
Sequence (O75385 whole entry, the tested form may be a part): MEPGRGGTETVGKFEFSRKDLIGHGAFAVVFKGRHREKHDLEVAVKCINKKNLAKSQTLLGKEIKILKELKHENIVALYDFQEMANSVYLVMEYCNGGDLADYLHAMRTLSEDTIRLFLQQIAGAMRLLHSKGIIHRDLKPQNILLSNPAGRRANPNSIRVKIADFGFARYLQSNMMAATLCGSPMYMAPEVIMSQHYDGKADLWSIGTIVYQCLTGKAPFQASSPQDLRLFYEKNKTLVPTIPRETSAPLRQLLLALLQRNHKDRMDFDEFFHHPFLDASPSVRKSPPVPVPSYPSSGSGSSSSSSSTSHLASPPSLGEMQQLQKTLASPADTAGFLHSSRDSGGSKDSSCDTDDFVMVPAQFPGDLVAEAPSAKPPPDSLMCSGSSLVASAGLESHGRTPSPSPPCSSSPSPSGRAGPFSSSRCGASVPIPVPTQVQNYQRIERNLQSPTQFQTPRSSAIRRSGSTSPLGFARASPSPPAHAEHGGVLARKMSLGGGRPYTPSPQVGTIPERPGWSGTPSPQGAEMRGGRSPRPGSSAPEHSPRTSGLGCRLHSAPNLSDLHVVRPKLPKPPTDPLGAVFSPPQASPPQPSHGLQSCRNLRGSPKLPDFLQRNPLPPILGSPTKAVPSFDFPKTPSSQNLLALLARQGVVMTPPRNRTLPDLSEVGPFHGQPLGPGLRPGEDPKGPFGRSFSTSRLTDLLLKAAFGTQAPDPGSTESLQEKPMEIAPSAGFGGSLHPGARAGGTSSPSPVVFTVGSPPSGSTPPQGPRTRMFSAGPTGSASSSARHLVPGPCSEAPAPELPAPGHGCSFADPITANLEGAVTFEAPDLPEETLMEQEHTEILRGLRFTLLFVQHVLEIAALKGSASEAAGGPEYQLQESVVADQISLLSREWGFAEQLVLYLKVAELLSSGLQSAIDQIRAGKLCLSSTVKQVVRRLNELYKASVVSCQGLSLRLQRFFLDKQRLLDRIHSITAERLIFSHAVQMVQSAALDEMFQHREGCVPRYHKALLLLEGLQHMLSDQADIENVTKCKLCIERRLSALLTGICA
Test: Apparent affinity (EC50) of energy transfer probes by titration onto live HEK293 cells expressing kinase/Nluc fusions (Table S1)
Settings: ULK1 (NP_003556), Nluc orientation N; read-out: Probe EC50
OBSERVED_PROPERTY: EC50

Provide EC50, system full-length kinase/Nluc fusion proteins (Homo sapiens, UniProt O75385), entry CNC(=O)c1ccccc1Nc1nc(Nc2ccc(N3CCN(C(=O)CCOCCOCCOCCOCCNC(=O)CCc4ccc5n4[B-](F)(F)[N+]4=C(c6ccc[nH]6)C=CC4=C5)CC3)cc2)ncc1Cl [Energy Transfer Probe 5]
> 1 µM
